In this section we review reported koff values for a set of binders.
- system_under_test: T1, recombinant RSV-F protein (RSV A2 strain fusion (F) protein with added His tag) (human respiratory syncytial virus, A2 …, UniProt P03420 26-524)
- T1 construct: also called RSV-F recombinant protein
- method: SPR (Biacore), antibody captured, RSV-F as analyte
Just the number in s⁻¹, nothing appended.

R10-6A11QH (antibody, human IgG1, kappa, V domains shown, also called chimeric antibody of R10-6A11) VH: QVKLEESGPGILQPSQTLSLTCSFSGFSLSTSGMGVSWIRQPSGKGLEWLAHIYWDDDKNYNPSLKSRLTISKDTSRNQVFLKITSVDTADTATYYCARKIYYDYDYALDYWGQGTSVTVSS VL: DIVMTQAAFSNPVTLGTSASISCRSSKSLLHSNGITYLCWFLQKPGQSPQLLIYQMSNLASGVPDRFSGSGSGTDFTLRISRVEAEDVGVYYCAQNLELWTFGGGTKLEIKR    0.000339

[Q] Sample R3-39A3QH (antibody, human IgG1, kappa, V domains shown, also called chimeric antibody of R3-39A3) VH: QVKLEESGPELVKPGASVKISCKASGYAFSSSWVNWVQQRPGQGLEWIGRIYPGDGETKYSGKFRGKATLTADKSSNTVYMQVSSLTSVDSAVYFCAREGGLITSSGYYHAMDYWGQGTSVTVSS VL: DIVLTQSPPSLAVSLGQRATISCRASKSVDSYGNGFMHWYQQKPGQPPKLLIFLASNLESGVPARFSGSGSRTDFTLTIDPVEADDAASYYCQQSDEDPTFGGGTKLEIKR — what was its koff?
[A] 0.000115

[Q] What does the data say about its koff? Entry: R18-22D7QH (antibody, human IgG1, kappa, V domains shown, also called chimeric antibody of R18-22D7) VH: EVKLLESGGGLVQPGGSLKLSCAASGFDFSRYWMSWVRQAPGKGLEWIGEINPDSSTINYTPSLKDKFIISRDNAKNTLYLQMSKVRSEDTALYYCARRGGISYAMDYWGQGTSVTVSS VL: DIVITQDELSNPVTSGESVSISCRSSKSLLYKDGKTYLNWFLQRPGQSPQLLIYLMSTRASGVSDRFSGSGSGTDFTLEISRVKAEDVGVYYCQQLVEYPRTFGGGTKLEIKR
[A] 0.00127
